Measured %Inh values are reported for all entries that follow.
System: MEK2;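 further: KINOMEscan kinase panel screen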
Construct: gene MAP2K2
Condition: concentration: 1 μM, replicates: in singlicate; n = 1
Property measured: %Inh (%)

> print(dat)
                                    molecule  measurement.units  obs.value
 1  Cl.Oc1cccc(Nc2ccnc3cc(-c4ccncc4)ccc23)c1                  %        100
 2   O=c1cc(N2CCOCC2)nc2n(Cc3cccc(F)c3)ccn12                  %          0
 3  Cc1ccc(NC(=O)c2ccnc(N3CCN(C)CC3)c2)cc1-c1ccc(C(=O)NCC2CC2)cc1                  %         25
 4  CC(C)(CN)c1nc(-c2ccc(Cl)c(O)c2)c(-c2ccncc2)[nH]1.O=C(O)C(F)(F)F                  %         20
 5  Cc1nnc(-c2ccc3occ(-c4ccc(C(C)O)cc4)c3c2)o1 (stereo not drawn)                  %         24
 6  COc1ccc(Nc2ncc(C#N)c(Nc3ccccc3C(N)=O)n2)cc1N1CCN(C)CC1.Cl                  %       92.6
 7      CN(C1=C(c2ccccc2)C(=O)NC1=O)c1ccccc1                  %          0
 8  O=c1cc(N2CCOCC2)nc2n(Cc3cccc4ccccc34)ccn12                  %          0
 9  CN1c2ccc(CNc3ccc(F)cc3)cc2-c2c(cnn2C)S1(=O)=O                  %         18
10  O=C1NC(=O)C(N2CCc3ccccc32)=C1c1cccc(Cl)c1                  %          0
11  COC(=O)Nc1nc2cc(Oc3ccc(NC(=O)Nc4cc(F)ccc4F)cc3)ccc2[nH]1.Cl                  %          0
12  NCC(NC(=O)c1cc(-c2cn[nH]c2)c(-c2ccnc3[nH]ccc23)s1)c1ccccc1.O=C(O)C(F)(F)F.O=C(O)C(F)(F)F (stereo not drawn)                  %         11
13  COc1ccc(COc2cc(-n3cnc4ccccc43)sc2C(N)=O)cc1                  %          0
14  COc1cc2c(cc1OCCN1CCN(C)CC1)ncc1c3ccc(C#N)cc3[nH]c21                  %         80
15  Cc1cccc(-c2nc(-c3ccc(S(C)(=O)=O)cc3)sc2-c2ccncc2)c1                  %          1
16  COc1cc(Nc2nccc(N3CCC(NC(=O)c4cccc(NC(C)=O)c4)C3)n2)cc(OC)c1OC (stereo not drawn)                  %          0
17  c1ccc(-c2cc(-c3c[nH]nc3-c3ccccn3)ccn2)cc1                  %          0
18  COc1cc2c(cc1OC[C@@H](O)CO)ncc1c3ccc(C#N)cc3[nH]c21                  %         42
19  O=C(NCCNc1ccnc(Nc2ccc(F)cc2)n1)Nc1ccccc1F                  %          0
20  O=C(NOCC1CC1)c1ccc(F)c(F)c1Nc1ccc(I)cc1Cl                  %         47
21  CCc1nc(-c2cccc(C)c2)c(-c2ccnc(NCc3ccccc3)c2)s1                  %          1
22  Cc1ccc(C(=O)NCC(N)=O)cc1-n1c(C)cc(OCc2ccc(F)cc2F)c(Br)c1=O                  %         26
23  O=c1cc(N2CCOCC2)nc2n(Cc3cccc(C(F)(F)F)c3)ccn12                  %          0
24  Fc1ccc(-c2ncn(CCCN3CCOCC3)c2-c2ccccn2)cc1                  %         31
